- Tested system: the molecule itself
- Test method notes: negative-stain TEM
Observation type: binding result

SPOP G128D, full-length (natural protein) MSRVPSPPPPAEMSSGPVAESWCYTQIKVVKFSYMWTINNFSFCREEMGEVIKSSTFSSGANDKLKWCLRVNPKGLDEESKDYLSLYLLLVSCPKSEVRAKFKFSILNAKGEETKAMESQRAYRFVQDKDWGFKKFIRRDFLLDEANGLLPDDKLTLFCEVSVVQDSVNISGQNTMNMVKVPECRLADELGGLWENSRFTDCCLCVAGQEFQAHKAILAARSPVFSAMFEHEMEESKKNRVEINDVEPEVFKEMMCFIYTGKAPNLDKMADDLLAAADKYALERLKVMCEDALCSNLSVENAAEILILADLHSADQLKTQAVDFINYHASDVLETSGWKSMVVSHPHLVAEAYRSLASAQCPFLGPPRKRLKQS : binds
SPOP W131L (natural protein) MSRVPSPPPPAEMSSGPVAESWCYTQIKVVKFSYMWTINNFSFCREEMGEVIKSSTFSSGANDKLKWCLRVNPKGLDEESKDYLSLYLLLVSCPKSEVRAKFKFSILNAKGEETKAMESQRAYRFVQGKDLGFKKFIRRDFLLDEANGLLPDDKLTLFCEVSVVQDSVNISGQNTMNMVKVPECRLADELGGLWENSRFTDCCLCVAGQEFQAHKAILAARSPVFSAMFEHEMEESKKNRVEINDVEPEVFKEMMCFIYTGKAPNLDKMADDLLAAADKYALERLKVMCEDALCSNLSVENAAEILILADLHSADQLKTQAVDFINYHASDVLETSGWKSMVVSHPHLVAEAYRSLASAQCPFLGPPRKRLKQS : binds
